Tested target: human HSL (Homo sapiens, UniProt Q05469)
Construct: generate a full length human HSL ORF with a 3′-His6 tag
Sequence (Q05469 whole entry): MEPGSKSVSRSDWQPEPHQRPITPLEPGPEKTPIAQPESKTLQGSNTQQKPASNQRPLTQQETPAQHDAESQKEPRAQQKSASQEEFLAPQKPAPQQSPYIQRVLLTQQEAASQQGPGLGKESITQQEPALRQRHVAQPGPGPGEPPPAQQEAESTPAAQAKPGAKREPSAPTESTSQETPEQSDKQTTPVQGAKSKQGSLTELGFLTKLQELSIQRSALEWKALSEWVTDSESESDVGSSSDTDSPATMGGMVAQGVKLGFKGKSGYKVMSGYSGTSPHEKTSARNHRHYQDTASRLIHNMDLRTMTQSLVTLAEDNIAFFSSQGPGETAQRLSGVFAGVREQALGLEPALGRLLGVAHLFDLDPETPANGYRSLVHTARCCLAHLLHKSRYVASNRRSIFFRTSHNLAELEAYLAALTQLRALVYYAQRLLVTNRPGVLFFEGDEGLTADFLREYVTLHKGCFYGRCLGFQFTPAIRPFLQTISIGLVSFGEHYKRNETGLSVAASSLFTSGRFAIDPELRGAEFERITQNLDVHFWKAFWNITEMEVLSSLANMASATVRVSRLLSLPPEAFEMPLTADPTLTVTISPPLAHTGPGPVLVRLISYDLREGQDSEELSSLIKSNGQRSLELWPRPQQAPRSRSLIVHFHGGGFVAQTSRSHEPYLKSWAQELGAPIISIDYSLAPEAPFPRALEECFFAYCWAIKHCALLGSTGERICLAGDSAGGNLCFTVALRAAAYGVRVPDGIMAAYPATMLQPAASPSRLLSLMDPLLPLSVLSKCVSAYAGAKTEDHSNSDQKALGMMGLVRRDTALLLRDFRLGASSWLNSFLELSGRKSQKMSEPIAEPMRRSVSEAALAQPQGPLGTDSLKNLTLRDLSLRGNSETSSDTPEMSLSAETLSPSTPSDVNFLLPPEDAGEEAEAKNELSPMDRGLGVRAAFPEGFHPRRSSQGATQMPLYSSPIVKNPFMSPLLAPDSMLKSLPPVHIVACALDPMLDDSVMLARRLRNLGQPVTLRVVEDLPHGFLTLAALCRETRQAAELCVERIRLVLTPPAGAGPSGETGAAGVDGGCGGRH
Assay summary: Human Hormone-Sensitive Lipase (HSL) enzyme inhibition assay (colorimetric, DMPT substrate)
Measurement parameters: human full length HSL-His6, 2,3-dimercapto-1-propanol tributyrate substrate, 37° C. 20 minutes, absorbance at 405 nm; read-out: HSL hum IC50
Measure: IC50 (nM)

1. CCC[C@]1(O)CC[C@]2(CCN(c3ccc(CCC(F)(F)F)cc3)C2=O)CC1: 50
2. CC(C)(C)c1ccc(N2CCC3(CCC(C(O)C(F)(F)F)CC3)C2=O)cc1 (single isomer, unassigned) [Example 361]: 110
3. CCC[C@]1(O)CC[C@]2(CCN(c3ccc(C(C)(C)COC)cc3)C2=O)CC1: 20

(a) O=C1CCCN1C[C@]1(O)CC[C@]2(CCN(c3ccc(OCC(F)(F)F)cc3)C2=O)CC1
(b) CCc1ccc(N2CC[C@]3(CC[C@@](O)(COCC(F)F)CC3)C2=O)cc1
Query string: Could you check which of a and b has a smaller value for IC50? Answer by stating the label of the chosen item.
Result string: b
(b: 40 nM, a: 80 nM)

(P) CC#C[C@]1(O)CC[C@]2(CCN(c3ccc(OCC(F)(F)F)cc3)C2=O)CC1
(Q) O=C(NCc1ccc(F)cc1)O[C@H]1CC[C@@]2(CCN(c3ccc(OC(F)(F)F)cc3)C2=O)CC1
Query string: Rank P against Q by their IC50 values and give the higher one. Refer to your chosen item by its label in the answer.
Result string: P
